Data origin, for the record: the Human Domainome abundance scans (Beltran et al. 2025)

B1: CD2-associated protein, residues 271 to 331; numbered along this chain, Q9Y5K6 (parent)
chain: KEYCRTLFAYEGTNEDELTFKEGEIIHLISKETGEAGWWRGELNGKEGVFPDNFAVQINEL

- Variants of: B1
- test: abundance fitness (aPCA) (normalised: wild type 0, dead -1); higher = more abundant; growth selection in yeast, the domain comes from the species named
- condition_context: Homo sapiens
Would you mind telling me the reported abundance fitness of each entry?
Returns: the value as a bare number; no unit string appended.

Prompt: Request the reported abundance fitness associated with `N14Y`
Response: -0.38

Prompt: Request the reported abundance fitness associated with `A36C`
Response: -0.147

Prompt: Request the reported abundance fitness associated with `F20S`
Response: -0.564

Prompt: Request the reported abundance fitness associated with `Q57C`
Response: -0.139

Prompt: Request the reported abundance fitness associated with `W39H`
Response: -0.623

Prompt: Request the reported abundance fitness associated with `K1D`
Response: -0.364

Prompt: Request the reported abundance fitness associated with `Y3H`
Response: -0.278

Prompt: Request the reported abundance fitness associated with `G37H`
Response: -0.306

Prompt: Request the reported abundance fitness associated with `P51K`
Response: 0.152

Prompt: Request the reported abundance fitness associated with `T19I`
Response: -0.693

Prompt: Request the reported abundance fitness associated with `F8Y`
Response: -0.148

Prompt: Request the reported abundance fitness associated with `L43I`
Response: -0.004

Prompt: Request the reported abundance fitness associated with `E35Y`
Response: 0.055

Prompt: Request the reported abundance fitness associated with `V49M`
Response: -0.082

Prompt: Request the reported abundance fitness associated with `G48I`
Response: -0.725

Prompt: Request the reported abundance fitness associated with `I58F`
Response: -0.126

Prompt: Request the reported abundance fitness associated with `A9K`
Response: -0.077

Prompt: Request the reported abundance fitness associated with `N44G`
Response: -0.029

Prompt: Request the reported abundance fitness associated with `C4M`
Response: -0.23

Prompt: Request the reported abundance fitness associated with `T6V`
Response: -0.844

Prompt: Request the reported abundance fitness associated with `A9W`
Response: -0.448

Prompt: Request the reported abundance fitness associated with `T33S`
Response: -0.097

Prompt: Request the reported abundance fitness associated with `A36Y`
Response: -0.334

Prompt: Request the reported abundance fitness associated with `N44T`
Response: -0.518

Prompt: Request the reported abundance fitness associated with `G34Y`
Response: -0.628

Prompt: Request the reported abundance fitness associated with `N53M`
Response: -0.198

Prompt: Request the reported abundance fitness associated with `A9N`
Response: -0.013

Prompt: Request the reported abundance fitness associated with `E47S`
Response: -0.052

Prompt: Request the reported abundance fitness associated with `E47D`
Response: -0.347

Prompt: Request the reported abundance fitness associated with `N59G`
Response: -0.037

Prompt: Request the reported abundance fitness associated with `E2V`
Response: -0.222

Prompt: Request the reported abundance fitness associated with `G23Q`
Response: -0.726

Prompt: Request the reported abundance fitness associated with `G48D`
Response: -0.695

Prompt: Request the reported abundance fitness associated with `K31A`
Response: -0.635

Prompt: Request the reported abundance fitness associated with `H27I`
Response: -0.297

Prompt: Request the reported abundance fitness associated with `R40F`
Response: -0.16

Prompt: Request the reported abundance fitness associated with `Q57F`
Response: -0.295

Prompt: Request the reported abundance fitness associated with `D52E`
Response: 0.043

Prompt: Request the reported abundance fitness associated with `R5T`
Response: -0.34

Prompt: Request the reported abundance fitness associated with `I58Y`
Response: -0.249

Prompt: Request the reported abundance fitness associated with `G23M`
Response: -0.958

Prompt: Request the reported abundance fitness associated with `S30D`
Response: -0.2

Prompt: Request the reported abundance fitness associated with `N53P`
Response: -0.365

Prompt: Request the reported abundance fitness associated with `K31E`
Response: -0.111

Prompt: Request the reported abundance fitness associated with `C4K`
Response: -0.64

Prompt: Request the reported abundance fitness associated with `L18H`
Response: -0.843

Prompt: Request the reported abundance fitness associated with `F20W`
Response: -0.887

Prompt: Request the reported abundance fitness associated with `I26V`
Response: -0.153

Prompt: Request the reported abundance fitness associated with `K21P`
Response: -0.242

Prompt: Request the reported abundance fitness associated with `A36Q`
Response: 0.036

Prompt: Request the reported abundance fitness associated with `G37R`
Response: -0.651

Prompt: Request the reported abundance fitness associated with `I25R`
Response: -0.372

Prompt: Request the reported abundance fitness associated with `P51A`
Response: -0.447

Prompt: Request the reported abundance fitness associated with `E47M`
Response: -0.301

Prompt: Request the reported abundance fitness associated with `W39A`
Response: -0.328

Prompt: Request the reported abundance fitness associated with `V56T`
Response: 0.033

Prompt: Request the reported abundance fitness associated with `A55S`
Response: -0.505

Prompt: Request the reported abundance fitness associated with `E17W`
Response: -0.855

Prompt: Request the reported abundance fitness associated with `L61V`
Response: 0.02

Prompt: Request the reported abundance fitness associated with `I29W`
Response: -1.05

Prompt: Request the reported abundance fitness associated with `T13A`
Response: 0.066

Prompt: Request the reported abundance fitness associated with `K21G`
Response: -0.027

Prompt: Request the reported abundance fitness associated with `I25T`
Response: -0.175

Prompt: Request the reported abundance fitness associated with `H27P`
Response: -0.428

Prompt: Request the reported abundance fitness associated with `G34E`
Response: -0.155

Prompt: Request the reported abundance fitness associated with `G45S`
Response: -0.376

Prompt: Request the reported abundance fitness associated with `G23S`
Response: -0.465

Prompt: Request the reported abundance fitness associated with `E60N`
Response: -0.227

Prompt: Request the reported abundance fitness associated with `E60H`
Response: 0.13
